# target system: mTOR (Homo sapiens, UniProt P42345)
# Construct: FLAG; made in house
# Sequence (P42345 1362-2549): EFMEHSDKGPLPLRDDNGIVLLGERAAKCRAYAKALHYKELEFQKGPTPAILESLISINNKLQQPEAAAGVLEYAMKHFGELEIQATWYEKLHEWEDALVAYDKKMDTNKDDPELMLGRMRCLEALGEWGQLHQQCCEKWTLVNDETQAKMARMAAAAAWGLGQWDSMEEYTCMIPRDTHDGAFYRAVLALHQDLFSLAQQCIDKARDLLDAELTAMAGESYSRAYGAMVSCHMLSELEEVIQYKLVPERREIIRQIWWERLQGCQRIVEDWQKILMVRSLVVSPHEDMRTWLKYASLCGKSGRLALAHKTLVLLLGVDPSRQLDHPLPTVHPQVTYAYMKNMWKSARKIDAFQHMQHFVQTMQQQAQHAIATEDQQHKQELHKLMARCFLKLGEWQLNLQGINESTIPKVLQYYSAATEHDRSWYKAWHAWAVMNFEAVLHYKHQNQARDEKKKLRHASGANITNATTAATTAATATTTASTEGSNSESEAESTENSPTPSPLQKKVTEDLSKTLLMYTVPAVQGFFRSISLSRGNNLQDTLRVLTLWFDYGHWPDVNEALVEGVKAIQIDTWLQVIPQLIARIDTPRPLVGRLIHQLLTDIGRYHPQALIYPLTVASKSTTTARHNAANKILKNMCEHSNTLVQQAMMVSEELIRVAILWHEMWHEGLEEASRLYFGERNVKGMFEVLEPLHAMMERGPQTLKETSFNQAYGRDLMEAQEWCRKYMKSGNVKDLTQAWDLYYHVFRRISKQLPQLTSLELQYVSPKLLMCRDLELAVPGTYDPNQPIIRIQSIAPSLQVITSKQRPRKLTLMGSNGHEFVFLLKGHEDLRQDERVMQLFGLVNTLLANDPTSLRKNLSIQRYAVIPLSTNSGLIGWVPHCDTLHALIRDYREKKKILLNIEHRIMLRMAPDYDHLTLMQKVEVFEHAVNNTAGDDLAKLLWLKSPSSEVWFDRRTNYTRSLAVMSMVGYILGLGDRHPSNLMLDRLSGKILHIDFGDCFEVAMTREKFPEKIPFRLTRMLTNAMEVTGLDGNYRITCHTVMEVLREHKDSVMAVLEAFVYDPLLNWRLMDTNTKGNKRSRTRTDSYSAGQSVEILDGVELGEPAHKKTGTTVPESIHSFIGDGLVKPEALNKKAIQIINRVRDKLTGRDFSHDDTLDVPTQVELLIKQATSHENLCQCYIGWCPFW
# assay comment: In Vitro mTOR Kinase Assay (Echo), Test (a)(ii)
# Assay type: biochemical
# test conditions: table of enzyme assay Test (a)(ii); read-out: Test (a)(ii) IC50
pIC50: −log10 of the molar value.
pIC50 values, listed per item
assay metric: pIC50

CNC(=O)Nc1ccc(-c2nc(N3CCOCC3)cc(C3(C(=O)N(C)C4CC4)CC3)n2)cc1 [Example 32c] ... 8.54
Cc1ccc(S(=O)(=O)C2(c3cc(N4CCOC[C@@H]4C)nc(-c4ccc(NC(=O)NCCF)cc4)n3)CC2)cc1 [Example 95o] ... 8.33
C[C@H]1COCCN1c1cc(C2(S(=O)(=O)c3ccc(Cl)cc3)CCOCC2)nc(-c2ccc(NC(=O)NCCN(C)C)cc2)n1 [Example 23k] ... 5.94
C[C@H]1COCCN1c1cc(C2(S(=O)(=O)CCO)CC2)nc(-c2ccc(NC(=O)Nc3cnn(C)c3)cc2)n1 [Example 16d] ... 8.44
CC(=O)NCCS(=O)(=O)C1(c2cc(N3CCOC[C@@H]3C)nc(-c3ccc(NC(=O)NC4CC4)cc3)n2)CC1 ... 7.63
C[C@H]1COCCN1c1cc(C2(S(=O)(=O)c3ccc(F)cc3)CCC2)nc(-c2ccc(NC(=O)NCCO)cc2)n1 [Example 65b] ... 8.47
C[C@H]1COCCN1c1cc(C2(S(=O)(=O)c3ccccc3)CC2)nc(-c2ccc(NC(=S)NCCC#N)cc2)n1 [Example 37y] ... 8.16
CCNC(=O)Nc1ccc(-c2nc(N3CCOC[C@@H]3C)cc(C3(S(=O)(=O)c4ccc(C#N)cc4)CC3)n2)cc1 [Example 77b] ... 8.07
C[C@H]1COCCN1c1cc(C2(S(=O)(=O)c3ccc(OC(F)F)cc3)CC2)nc(-c2ccc(NC(=O)NCCO)cc2)n1 [Example 64c] ... 8.67

---

# target system: mTOR (Homo sapiens)
# Construct: FLAG; made in house
# assay comment: mTOR Kinase Assay (Echo)
# Type: biochemical
IC50 values, listed per item
assay metric: IC50 (nM)

CNC(=O)Nc1ccc(-c2nc(N3CCOC[C@@H]3C)cc(C3(S(=O)(=O)c4ccc(F)cn4)CC3)n2)cc1 [Example 48] ... 2.52
C[C@H]1COCCN1c1cc(C2(S(C)(=O)=O)CC2)nc(-c2ccc(NC(=O)NCCCO)cc2)n1 [Example 36bb] ... 20.5
C[C@H]1COCCN1c1cc(C2(S(=O)(=O)c3ccccc3)CC2)nc(-c2ccc(NC(=O)NCCO)cc2)n1 [Example 36bh] ... 1.21
C[C@H]1COCCN1c1cc(C2(S(=O)(=O)c3ccccc3)CC2)nc(-c2ccc(NC(=O)NC3CC3)cc2)n1 [Example 36bc] ... 2.05
CNC(=O)Nc1ccc(-c2nc(N3CCOC[C@@H]3C)cc(C3(S(=O)(=O)c4ccccc4)CC3)n2)cc1 [Example 36bj] ... 0.621
C[C@H]1COCCN1c1cc(C2(S(=O)(=O)c3ccccn3)CC2)nc(-c2ccc(NC(=O)NC3(CO)CC3)cc2)n1 [Example 36cv] ... 259
C[C@H]1COCCN1c1cc(C2(S(=O)(=O)c3ccccc3)CCC2)nc(-c2ccc(NC(=O)NC3CC3)cc2)n1 [Example 36bs] ... 1.61
C[C@H]1COCCN1c1cc(C2(S(=O)(=O)c3ccccn3)CC2)nc(-c2ccc(NC(=O)NCCO)cc2)n1 [Example 28g] ... 11.8
C[C@H]1COCCN1c1cc(C2(S(=O)(=O)c3ccccc3)CCC2)nc(-c2ccc(NC(=O)NCCO)cc2)n1 [Example 36bt] ... 1.05
C[C@H]1COCCN1c1cc(C2(S(=O)(=O)c3ccccn3)CC2)nc(-c2ccc(NC(=O)NC3CC3)cc2)n1 [Example 28] ... 0.816

---

# target system: mTOR (Homo sapiens, UniProt P42345)
# Construct: FLAG; made in house
# assay comment: In Vitro mTOR Kinase Assay (Echo), Test (a)(ii)
# Format: biochemical
# test conditions: table of enzyme assay Test (a)(ii); read-out: Test (a)(ii) IC50
pIC50: −log10 of the molar value.
assay metric: pIC50

C[C@H]1COCCN1c1cc(C2(S(=O)(=O)c3ccncc3)CCC2)nc(-c2ccc(NC(=S)NCc3ncc[nH]3)cc2)n1 ... 7.14
CNC(=O)Nc1ccc(-c2nc(N3CCOCC3)cc(C3(S(=O)(=O)c4ccncc4)CC3)n2)cc1 [Example 36at] ... 8.19
CNC(=O)Nc1ccc(-c2nc(N3CCOCC3)cc(C3(C(=O)N4CCOC[C@@H]4C)CC3)n2)cc1 [Example 32a] ... 7.37

---

# target system: mTOR (Homo sapiens, UniProt P42345)
# Construct: FLAG; made in house
# assay comment: In Vitro mTOR Kinase Assay (Echo), Test (a)(ii)
# Assay type: biochemical
# test conditions: table of enzyme assay Test (a)(ii); read-out: Test (a)(ii) IC50
log10 IC50 values, listed per item
assay metric: log10 IC50 (log10 of the value in nM)

C[C@H]1COCCN1c1cc(C2(S(=O)(=O)c3cc(F)ccc3F)CC2)nc(-c2ccc(NC(=O)NCCF)cc2)n1 [Example 60c] ... 0.84
CCNC(=O)Nc1ccc(-c2nc(N3CCOC[C@@H]3C)cc(C3(S(=O)(=O)CCNC(C)=O)CC3)n2)cc1 [Example 45] ... 0.86
C[C@H]1COCCN1c1cc(C2(S(C)(=O)=O)CCOCC2)nc(-c2ccc(NC(=O)Nc3cnn(C)c3)cc2)n1 [Example 23d] ... 0.73
CNC(=O)Nc1ccc(-c2nc(N3[C@@H](C)COC[C@@H]3C)cc(C3(S(C)(=O)=O)CC3)n2)cc1 [Example 91a] ... 0.30
CCS(=O)(=O)C1(c2cc(N3CCOC[C@@H]3C)nc(-c3ccc(NC(=O)NCc4ncc[nH]4)cc3)n2)CC1 [Example 36w] ... 2.04
CCS(=O)(=O)C1(c2cc(N3CCOC[C@@H]3C)nc(-c3ccc(NC(=O)NC(C)(C)CO)cc3)n2)CCC1 [Example 87d] ... 1.25
CNC(=O)Nc1ccc(-c2nc(N3CCOC[C@@H]3C)cc(C3(S(=O)(=O)c4ccccc4C)CC3)n2)cc1 [Example 54] ... 0.34
CCNC(=O)Nc1ccc(-c2nc(N3CCOC[C@@H]3C)cc(C3(S(=O)(=O)c4ccccc4C)CC3)n2)cc1 [Example 54e] ... 0.88
C[C@H]1COCCN1c1cc(C2(S(C)(=O)=O)CCC2)nc(-c2ccc(NC(=S)NCc3ncc[nH]3)cc2)n1 [Example 62a] ... 1.59

---

# target system: mTOR (Homo sapiens, UniProt P42345)
# Construct: FLAG; made in house
# assay comment: In Vitro mTOR Kinase Assay (Echo), Test (a)(ii)
# Assay type: biochemical
# test conditions: table of enzyme assay Test (a)(ii); read-out: Test (a)(ii) IC50
pIC50: −log10 of the molar value.
Param threshold (8) applies to pIC50; output yes (1) when value >= threshold, no (0) when value < threshold.

CC(C)NC(=O)Nc1ccc(-c2nc(N3CCOC[C@@H]3C)cc(C3(S(=O)(=O)c4ccc(Cl)cc4)CC3)n2)cc1 [Example 27d] ... yes (1)
C[C@H]1COCCN1c1cc(C2(S(=O)(=O)CCCO)CCCC2)nc(-c2ccc(NC(=O)NCCC#N)cc2)n1 [Example 43h] ... no (0)
C[C@@H](CO)NC(=O)Nc1ccc(-c2nc(N3CCOC[C@@H]3C)cc(C3(S(=O)(=O)c4ccncc4)CCC3)n2)cc1 [Example 83a] ... yes (1)
C[C@H]1COCCN1c1cc(C2(S(=O)(=O)c3ccncc3)CCC2)nc(-c2ccc(NC(=O)NCCO)cc2)n1 ... yes (1)
C[C@H]1COCCN1c1cc(C2(S(=O)(=O)c3ccccc3F)CC2)nc(-c2ccc(NC(=O)NCC(F)F)cc2)n1 [Example 58d] ... yes (1)
CNC(=O)Nc1ccc(-c2nc(N3CCOC[C@@H]3C)cc(C3(S(=O)(=O)C4CC4)CCOCC3)n2)cc1 [Example 23f] ... no (0)
C[C@H]1COCCN1c1cc(C2(S(=O)(=O)c3ccccn3)CC2)nc(-c2ccc(NC(=O)Nc3ccccn3)cc2)n1 [Example 28b] ... yes (1)
CCCNC(=O)Nc1ccc(-c2nc(N3CCOCC3)cc(C3(S(=O)(=O)c4nc(C)cs4)CC3)n2)cc1 [Example 42g] ... yes (1)
C[C@H]1COCCN1c1cc(C2(S(C)(=O)=O)CCC2)nc(-c2ccc(NC(=O)Nc3cnn(C)c3)cc2)n1 ... yes (1)

---

IC50 values, listed per item
# target system: mTOR (Homo sapiens)
# Construct: FLAG; made in house
# assay comment: In Vitro mTOR Kinase Assay (Echo), Test (a)(ii)
# Assay type: biochemical
# test conditions: table of enzyme assay Test (a)(ii); read-out: Test (a)(ii) IC50
assay metric: IC50 (nM)

C[C@H]1COCCN1c1cc(C2(S(=O)(=O)CCCO)CCC2)nc(-c2ccc(NC(=O)NCCCO)cc2)n1 [Example 43l] ... 23.6
Cc1cc(F)ccc1S(=O)(=O)C1(c2cc(N3CCOC[C@@H]3C)nc(-c3ccc(NC(=O)NCC(F)F)cc3)n2)CC1 [Example 82d] ... 24.3
C[C@@H](CO)NC(=O)Nc1ccc(-c2nc(N3CCOC[C@@H]3C)cc(C3(S(=O)(=O)CCCO)CCC3)n2)cc1 [Example 43q] ... 28
